Biological target: hSUR1/hKir6.2 (Homo sapiens)
Assay: Effect on membrane potential of hSUR1/hKir6.2-transfected CHO cells (hypoglycemic effect), DiBAC4 fluorescence, FLIPR
Type: cell-based
Conditions: 0.1 μM; CHO cells activated with diaxozide; averages of at least 4 experiments
Method: 2) Effect on hSUR1/hKir6.2-Transfected CHO Cells (Hypoglycemic Effect) […] On the day of the measurement, the microtiter plates were washed three times with PBS (physiological buffer solution). […] After an incubation time of 30 minutes at 37° C., the microtiter plates were then transferred into a Fluorescent Microtiter Plate Reader (FLIPR; Molecular Devices, Sunnyvale, Calif., USA). […]
Give measured hSUR1/hKir6.2 blockade at 0.1 μM for each item. Keep answers brief.
Respond numerically; units are % and should not be typed.

State its hSUR1/hKir6.2 blockade at 0.1 μM: CCCNC(=S)NS(=O)(=O)N1CCC(CCNC(=O)c2cc(Cl)ccc2OC)CC1 5

State its hSUR1/hKir6.2 blockade at 0.1 μM: CCNC(=O)NS(=O)(=O)N1CCC(CCNC(=O)c2cc(Cl)ccc2OC)CC1 8

State its hSUR1/hKir6.2 blockade at 0.1 μM: COc1ccc(Cl)cc1C(=O)NCCC1CCN(S(=O)(=O)NC(=S)NC(C)C)CC1 2

---

target: hSUR1/hKir6.2 (Homo sapiens, UniProt Q09428); experiment: Effect on membrane potential of hSUR1/hKir6.2-transfected CHO cells (hypoglycemic effect), DiBAC4 fluorescence, FLIPR; format: cell-based; conditions: 10 μM; CHO cells activated with diaxozide; averages of at least 4 experiments
Sequence (Q09428 whole entry): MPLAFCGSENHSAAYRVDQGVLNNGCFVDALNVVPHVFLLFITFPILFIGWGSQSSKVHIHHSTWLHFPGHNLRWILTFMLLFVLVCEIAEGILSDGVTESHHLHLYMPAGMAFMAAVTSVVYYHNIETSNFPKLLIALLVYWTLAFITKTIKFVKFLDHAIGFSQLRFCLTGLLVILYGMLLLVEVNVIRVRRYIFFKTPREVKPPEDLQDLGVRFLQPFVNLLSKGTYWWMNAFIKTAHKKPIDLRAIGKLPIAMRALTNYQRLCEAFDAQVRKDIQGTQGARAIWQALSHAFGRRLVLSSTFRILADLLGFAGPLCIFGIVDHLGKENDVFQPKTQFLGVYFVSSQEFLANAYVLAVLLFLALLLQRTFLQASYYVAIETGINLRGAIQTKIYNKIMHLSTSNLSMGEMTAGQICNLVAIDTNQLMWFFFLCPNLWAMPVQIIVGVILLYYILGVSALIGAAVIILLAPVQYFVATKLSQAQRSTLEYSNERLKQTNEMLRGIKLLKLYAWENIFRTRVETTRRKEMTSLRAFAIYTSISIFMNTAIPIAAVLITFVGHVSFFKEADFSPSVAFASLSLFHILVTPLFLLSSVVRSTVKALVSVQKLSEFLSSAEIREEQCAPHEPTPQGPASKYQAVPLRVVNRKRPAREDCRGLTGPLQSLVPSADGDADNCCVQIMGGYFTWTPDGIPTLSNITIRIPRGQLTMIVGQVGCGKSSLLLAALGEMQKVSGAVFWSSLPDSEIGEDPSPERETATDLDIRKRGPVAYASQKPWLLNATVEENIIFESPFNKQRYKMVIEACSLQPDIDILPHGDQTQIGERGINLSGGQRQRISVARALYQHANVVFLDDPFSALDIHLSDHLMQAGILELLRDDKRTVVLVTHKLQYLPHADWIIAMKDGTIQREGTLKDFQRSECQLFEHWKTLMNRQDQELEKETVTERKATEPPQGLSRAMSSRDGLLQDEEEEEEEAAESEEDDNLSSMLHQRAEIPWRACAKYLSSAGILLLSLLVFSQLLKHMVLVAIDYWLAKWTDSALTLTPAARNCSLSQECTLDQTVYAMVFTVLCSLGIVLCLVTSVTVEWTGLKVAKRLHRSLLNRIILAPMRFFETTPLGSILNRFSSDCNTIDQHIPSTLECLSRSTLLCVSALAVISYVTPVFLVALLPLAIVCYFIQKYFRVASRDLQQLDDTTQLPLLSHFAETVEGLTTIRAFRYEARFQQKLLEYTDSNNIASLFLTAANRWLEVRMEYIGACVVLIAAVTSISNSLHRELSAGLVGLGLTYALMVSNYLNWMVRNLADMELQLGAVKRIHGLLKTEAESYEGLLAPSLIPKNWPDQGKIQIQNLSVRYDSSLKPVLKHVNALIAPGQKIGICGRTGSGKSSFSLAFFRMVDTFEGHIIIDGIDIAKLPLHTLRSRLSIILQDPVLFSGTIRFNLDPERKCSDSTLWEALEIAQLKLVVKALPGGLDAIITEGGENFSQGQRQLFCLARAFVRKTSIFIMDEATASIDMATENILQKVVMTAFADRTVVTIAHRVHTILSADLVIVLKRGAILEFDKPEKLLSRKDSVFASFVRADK
Sequence (Q14654 whole entry partner): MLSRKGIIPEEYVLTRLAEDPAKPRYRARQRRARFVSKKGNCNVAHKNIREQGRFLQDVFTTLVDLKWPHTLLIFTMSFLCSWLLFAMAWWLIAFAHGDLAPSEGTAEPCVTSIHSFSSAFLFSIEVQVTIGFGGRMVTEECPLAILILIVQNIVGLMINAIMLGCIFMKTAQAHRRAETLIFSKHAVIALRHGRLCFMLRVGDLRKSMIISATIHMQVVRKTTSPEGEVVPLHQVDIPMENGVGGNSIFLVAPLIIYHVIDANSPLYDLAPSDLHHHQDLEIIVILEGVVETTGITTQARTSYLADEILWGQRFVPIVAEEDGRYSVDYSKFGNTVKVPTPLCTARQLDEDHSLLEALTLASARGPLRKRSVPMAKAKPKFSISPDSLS
experimental-endpoint: hSUR1/hKir6.2 blockade at 10 μM (%)
Respond numerically; units are % and should not be typed.

State its hSUR1/hKir6.2 blockade at 10 μM: CNC(=O)NS(=O)(=O)N1CCC(CCNC(=O)c2cc(Cl)ccc2OC)CC1 60

State its hSUR1/hKir6.2 blockade at 10 μM: CCNC(=O)NS(=O)(=O)N1CCC(CCNC(=O)c2cc(Cl)ccc2OC)CC1 102

State its hSUR1/hKir6.2 blockade at 10 μM: CCCNC(=S)NS(=O)(=O)N1CCC(CCNC(=O)c2cc(Cl)ccc2OC)CC1 89

State its hSUR1/hKir6.2 blockade at 10 μM: CNC(=S)NS(=O)(=O)N1CCC(CCNC(=O)c2cc(Cl)ccc2OC)CC1 41

State its hSUR1/hKir6.2 blockade at 10 μM: COc1ccc(Cl)cc1C(=O)NCCC1CCN(S(=O)(=O)NC(=S)NC(C)C)CC1 89

State its hSUR1/hKir6.2 blockade at 10 μM: CCNC(=S)NS(=O)(=O)N1CCC(CCNC(=O)c2cc(Cl)ccc2OC)CC1 67

---

target: hSUR1/hKir6.2 (Homo sapiens, UniProt Q09428); assay: Effect on membrane potential of hSUR1/hKir6.2-transfected CHO cells (hypoglycemic effect), DiBAC4 fluorescence, FLIPR; format: cell-based; settings: 1 μM; CHO cells activated with diaxozide; averages of at least 4 experiments
Give measured hSUR1/hKir6.2 blockade at 1 μM for each item. Keep answers brief.
Respond numerically; units are % and should not be typed.

State its hSUR1/hKir6.2 blockade at 1 μM: CNC(=O)NS(=O)(=O)N1CCC(CCNC(=O)c2cc(Cl)ccc2OC)CC1 15

State its hSUR1/hKir6.2 blockade at 1 μM: COc1ccc(Cl)cc1C(=O)NCCC1CCN(S(=O)(=O)NC(=S)NC(C)C)CC1 53

State its hSUR1/hKir6.2 blockade at 1 μM: CNC(=S)NS(=O)(=O)N1CCC(CCNC(=O)c2cc(Cl)ccc2OC)CC1 2

State its hSUR1/hKir6.2 blockade at 1 μM: CCNC(=O)NS(=O)(=O)N1CCC(CCNC(=O)c2cc(Cl)ccc2OC)CC1 55

State its hSUR1/hKir6.2 blockade at 1 μM: CCCNC(=S)NS(=O)(=O)N1CCC(CCNC(=O)c2cc(Cl)ccc2OC)CC1 55

State its hSUR1/hKir6.2 blockade at 1 μM: CCNC(=S)NS(=O)(=O)N1CCC(CCNC(=O)c2cc(Cl)ccc2OC)CC1 4

---

Give measured melting point for each item. Keep answers brief.

State its melting point: COc1ccc(Cl)cc1C(=O)NCCC1CCN(S(=O)(=O)NC(=S)NC2CC2)CC1 [Example 5] 144 to 145 °C

State its melting point: COc1ccc(Cl)cc1C(=O)NCCC1CCN(S(=O)(=O)NC(=S)NC2CCCCC2)CC1 [Example 6] 146 to 148 °C

State its melting point: CCCNC(=O)NS(=O)(=O)N1CCC(CCNC(=O)c2cc(Cl)ccc2OC)CC1 [Example 9] 140 to 142 °C

State its melting point: COc1ccc(Cl)cc1C(=O)NCCC1CCN(S(=O)(=O)NC(=O)NC2CC2)CC1 [Example 11] 138 to 139 °C

---

Give measured hSUR1/hKir6.2 blockade at 0.1 μM for each item. Keep answers brief.
biological target: hSUR1/hKir6.2 (Homo sapiens); test: Effect on membrane potential of hSUR1/hKir6.2-transfected CHO cells (hypoglycemic effect), DiBAC4 fluorescence, FLIPR; assay type: cell-based; conditions: 0.1 μM; CHO cells activated with diaxozide; averages of at least 4 experiments

State its hSUR1/hKir6.2 blockade at 0.1 μM: CNC(=S)NS(=O)(=O)N1CCC(CCNC(=O)c2cc(Cl)ccc2OC)CC1 <1%

State its hSUR1/hKir6.2 blockade at 0.1 μM: CCNC(=S)NS(=O)(=O)N1CCC(CCNC(=O)c2cc(Cl)ccc2OC)CC1 <1%

State its hSUR1/hKir6.2 blockade at 0.1 μM: CNC(=O)NS(=O)(=O)N1CCC(CCNC(=O)c2cc(Cl)ccc2OC)CC1 <1%
